Property: total FIC90; scope: individual compounds
System: Mycobacterium tuberculosis Erdman (autoluminescent)
Test: total FIC90 (Loewe) at 90% inhibition, three-drug combination (log2); higher = more antagonistic
Settings: in vitro model: valerate; time point: terminal (~4-5 doublings, model-specific)

NNC(=O)c1ccncc1 [isoniazid] + CC(=O)NC[C@H]1CN(c2ccc(N3CCOCC3)c(F)c2)C(=O)O1 [linezolid] + CO[C@H]1/C=C/O[C@@]2(C)Oc3c(C)c(O)c4c(O)c(c(/C=N/N5CCN(C)CC5)c(O)c4c3C2=O)NC(=O)/C(C)=C\C=C\[C@H](C)[C@H](O)[C@@H](C)[C@@H](O)[C@@H](C)[C@H](OC(C)=O)[C@@H]1C [rifampicin] = 0.221

Need total FIC90 of COc1nc2ccc(Br)cc2cc1[C@@H](c1ccccc1)[C@@](O)(CCN(C)C)c1cccc2ccccc12 [bedaquiline] + CC[C@@H](CO)NCCN[C@@H](CC)CO [ethambutol] + NC(=O)c1cnccn1 [pyrazinamide] , thanks. -0.297

// returns reported total FIC90 for input COc1nc2ccc(Br)cc2cc1[C@@H](c1ccccc1)[C@@](O)(CCN(C)C)c1cccc2ccccc12 [bedaquiline] + CC(=O)NC[C@H]1CN(c2ccc(N3CCOCC3)c(F)c2)C(=O)O1 [linezolid] + O=[N+]([O-])c1cn2c(n1)OC[C@@H](OCc1ccc(OC(F)(F)F)cc1)C2 [pretomanid] 1.32

Given NNC(=O)c1ccncc1 [isoniazid] + NC(=O)c1cnccn1 [pyrazinamide] + CO[C@H]1/C=C/O[C@@]2(C)Oc3c(C)c(O)c4c(O)c(c(/C=N/N5CCN(C6CCCC6)CC5)c(O)c4c3C2=O)NC(=O)/C(C)=C\C=C\[C@H](C)[C@H](O)[C@@H](C)[C@@H](O)[C@@H](C)[C@H](OC(C)=O)[C@@H]1C [rifapentine] , state its recorded total FIC90. -0.889

Need total FIC90, item NNC(=O)c1ccncc1 [isoniazid] + COc1c(N2C[C@@H]3CCCN[C@@H]3C2)c(F)cc2c(=O)c(C(=O)O)cn(C3CC3)c12 [moxifloxacin] + NC(=O)c1cnccn1 [pyrazinamide] -1.83

# input compound: COc1nc2ccc(Br)cc2cc1[C@@H](c1ccccc1)[C@@](O)(CCN(C)C)c1cccc2ccccc12 [bedaquiline] + NC(=O)c1cnccn1 [pyrazinamide] + CO[C@H]1/C=C/O[C@@]2(C)Oc3c(C)c(O)c4c(O)c(c(/C=N/N5CCN(C6CCCC6)CC5)c(O)c4c3C2=O)NC(=O)/C(C)=C\C=C\[C@H](C)[C@H](O)[C@@H](C)[C@@H](O)[C@@H](C)[C@H](OC(C)=O)[C@@H]1C [rifapentine] ; wanted: its total FIC90 0.779

I have this compound here, NNC(=O)c1ccncc1 [isoniazid] + CC(=O)NC[C@H]1CN(c2ccc(N3CCOCC3)c(F)c2)C(=O)O1 [linezolid] + NC(=O)c1cnccn1 [pyrazinamide] , and I need its recorded total FIC90. -3

# lookup: total FIC90 of CC(=O)NC[C@H]1CN(c2ccc(N3CCOCC3)c(F)c2)C(=O)O1 [linezolid] + COc1c(N2C[C@@H]3CCCN[C@@H]3C2)c(F)cc2c(=O)c(C(=O)O)cn(C3CC3)c12 [moxifloxacin] + CO[C@H]1/C=C/O[C@@]2(C)Oc3c(C)c(O)c4c(O)c(c(/C=N/N5CCN(C)CC5)c(O)c4c3C2=O)NC(=O)/C(C)=C\C=C\[C@H](C)[C@H](O)[C@@H](C)[C@@H](O)[C@@H](C)[C@H](OC(C)=O)[C@@H]1C [rifampicin] 0.105

Need total FIC90 of CC[C@@H](CO)NCCN[C@@H](CC)CO [ethambutol] + NC(=O)c1cnccn1 [pyrazinamide] + CO[C@H]1/C=C/O[C@@]2(C)Oc3c(C)c(O)c4c(O)c(c(/C=N/N5CCN(C6CCCC6)CC5)c(O)c4c3C2=O)NC(=O)/C(C)=C\C=C\[C@H](C)[C@H](O)[C@@H](C)[C@@H](O)[C@@H](C)[C@H](OC(C)=O)[C@@H]1C [rifapentine] , thanks. -0.692
